# Test system: NCI-H292
# experiment: Cytotoxicity against human NCI-H292 cells after 72 hrs by MTT assay
# Format: functional, cell-based
# condition-parameters: NCI-H292, 72 h
Consider the following molecules; for each one, report its pIC50.
Give only the number. pIC50 is defined as minus log10 of concentration in molar units.

For the molecule C/C=C(/C)C(=O)OC[C@H]1c2c(O)c(OC)c(C)c(OC(=O)CCCCC)c2C[C@H]2[C@H]3C4=C(C[C@H]([C@H](C#N)N12)N3C)C(=O)C(C)=C(OC)C4=O , give its measured pIC50 value.
7.80

Tell me its pIC50 given C/C=C(/C)C(=O)OC[C@H]1c2c(c(OC(C)=O)c(C)c(OC)c2OC(C)=O)C[C@H]2[C@H]3C4=C(C[C@H]([C@H](C#N)N12)N3C)C(=O)C(C)=C(OC)C4=O as the entry.
7.55

For C/C=C(/C)C(=O)OC[C@H]1c2c(O)c(OC)c(C)c(OC=O)c2C[C@H]2[C@H]3C4=C(C[C@H]([C@H](C#N)N12)N3C)C(=O)C(C)=C(OC)C4=O , write its pIC50.
7.92

Query pIC50 for COc1cccc2c1C(=O)c1c(O)c3c(c(O)c1C2=O)C[C@@](O)(C(=O)CO)C[C@@H]3O[C@H]1C[C@H](N)[C@H](O)[C@H](C)O1 [DOXORUBICIN]
6.45

Return pIC50 (reported value) for this molecule: C/C=C(/C)C(=O)OC[C@H]1c2c(O)c(OC)c(C)c(OC(=O)c3cnc4ccccc4c3)c2C[C@H]2[C@H]3C4=C(C[C@H]([C@H](C#N)N12)N3C)C(=O)C(C)=C(OC)C4=O
6.95

====

# System: NCI-H460
# experiment: Cytotoxicity against human NCI-H460 cells after 72 hrs by MTT assay
# Type: functional, cell-based
# condition-parameters: NCI-H460, 72 h
Would you mind telling me the reported IC50 of each entry?
Enter your answer as a number in nM; do not include the unit.

Please report IC50 for the following compound: C/C=C(/C)C(=O)OC[C@H]1c2c(O)c(OC)c(C)c(OC(=O)CCCC)c2C[C@H]2[C@H]3C4=C(C[C@H]([C@H](C#N)N12)N3C)C(=O)C(C)=C(OC)C4=O
26

Name the recorded IC50 of the item C/C=C(/C)C(=O)OC[C@H]1c2c(O)c(OC)c(C)c(OC(=O)CC)c2C[C@H]2[C@H]3C4=C(C[C@H]([C@H](C#N)N12)N3C)C(=O)C(C)=C(OC)C4=O in your answer.
5.1

// Input: C/C=C(/C)C(=O)OC[C@H]1c2c(O)c(OC)c(C)c(OC(=O)CCC)c2C[C@H]2[C@H]3C4=C(C[C@H]([C@H](C#N)N12)N3C)C(=O)C(C)=C(OC)C4=O . Output its IC50 only.
5.6

Look up and report measured IC50 for this entry: C/C=C(/C)C(=O)OC[C@H]1c2c(O)c(OC)c(C)c(OC(=O)c3ccc(-c4ccccc4)cc3)c2C[C@H]2[C@H]3C4=C(C[C@H]([C@H](C#N)N12)N3C)C(=O)C(C)=C(OC)C4=O
54

Please give measured IC50 of the following entry: C/C=C(/C)C(=O)OC[C@H]1c2c(O)c(OC)c(C)c(O)c2C[C@H]2[C@H]3c4c(O)c(OC)c(C)c(O)c4C[C@H]([C@H](C#N)N12)N3C
1.1
